- assaySystem: T1, rat serum albumin (rat, UniProt P02770 25-608)
- T1 construct: also called RSA
- assay: SPR, single cycle kinetics, pH 7.4

binder	binding result
Rh46-H4 (VHH) VHH: QVQLVESGGGLVQPGGSLRLSCAASTRTFSSYIMGWFRQAPGKERELVAAISWSGRMTHYADSVKGRFTISRDNSKNTLYLQMNSLRAEDTAIYSCAADRTTAWGAPRSQYDSWGQGTLVTVSS	no binding
Rh46-H3 (VHH) VHH: QVQLVESGGGLVQPGGSLRLSCAASTRTFSSYIMGWFRQAPGKERELVAAISWSGRMTHYADSVKGRFTISRDNSKNTLYLQMNSLRAEDTAVYYCAADRTTAWGAPRSQYDSWGQGTLVTVSS	no binding
H18-H4 (VHH) VHH: QVQLVESGGGLVQPGGSLRLSCAASGSIESINRMAWYRQAPGQQREFVARISKGGSTNYPDSVKGRFTISRDNSKNTLYLQMNSLRAEDTAVYYCAAGPVWEQFWGQGTLVTVSS	no binding
Rh34 sdAb (VHH, also called Rh34 VHH) VHH: QVKLEESGGGLVQAGGSLRLSCAASGRTISLYAVGWFRRAPGKEREFVAAISWTDSSTYYADSVKGRFTISRDNAKNTVYLGMNSLNPEDTAVYYCAADVSIRGLQKYEYDYWGQGTQVTVSS	no binding

Entry source: patent US20210253679A1
